Tested on: p-p70 S6 Kinase (Thr389) in MCF-7 cells
Measurement Description: AlphaLISA Ultra pS6K1 assay
Format: cell-based
Run Conditions: Homo sapiens, 1.5 h; MCF7 cells, 90 min
Metric: IC50

Examples from the recorded data:
compound=CO[C@@H]1C[C@H](C[C@@H](C)[C@@H]2CC(=O)[C@H](C)/C=C(\C)[C@@H](O)[C@@H](OC)C(=O)[C@H](C)C[C@H](C)/C=C/C=C/C=C(\C)[C@@H](OCCOC3COC3)C[C@@H]3CC[C@@H](C)[C@@](O)(O3)C(=O)C(=O)N3CCCC[C@H]3C(=O)O2)CC[C@H]1OC(F)F value="1 to 10 nM"
compound=COCCOCCO[C@H]1C[C@@H]2CC[C@@H](C)[C@@](O)(O2)C(=O)C(=O)N2CCCC[C@H]2C(=O)O[C@H]([C@H](C)C[C@@H]2CC[C@@H](OCCO)[C@H](OC)C2)CC(=O)[C@H](C)/C=C(\C)[C@@H](OC)[C@@H](OC)C(=O)[C@H](C)C[C@H](C)/C=C/C=C/C=C/1C value="1 to 10 nM"
compound="CO[C@@H]1C[C@H](C[C@@H](C)[C@@H]2CC(=O)[C@H](C)/C=C(\\C)[C@@H](O)[C@@H](OC)C(=O)[C@H](C)C[C@H](C)/C=C/C=C/C=C(\\C)C(OCC3COCCO3)C[C@@H]3CC[C@@H](C)[C@@](O)(O3)C(=O)C(=O)N3CCCC[C@H]3C(=O)O2)CC[C@H]1OC(F)F (stereo partly shown)" value="10 to 100 nM"
compound="CO[C@@H]1C[C@H](C[C@@H](C)[C@@H]2CC(=O)[C@H](C)/C=C(\\C)[C@@H](O)[C@@H](OC)C(=O)[C@H](C)C[C@H](C)/C=C/C=C/C=C(\\C)C(OCCOC3COC3)C[C@@H]3CC[C@@H](C)[C@@](O)(O3)C(=O)C(=O)N3CCCC[C@H]3C(=O)O2)CC[C@H]1OCCCN1CCN(C)CC1 (stereo partly shown)" value="1 to 10 nM"
compound=CO[C@@H]1/C(C)=C/[C@@H](C)C(=O)C[C@@H]([C@H](C)C[C@@H]2CC[C@@H](OCCCO)[C@H](OC)C2)OC(=O)[C@@H]2CCCCN2C(=O)C(=O)[C@]2(O)O[C@@H](CC[C@H]2C)C[C@H](OCCOC2COC2)/C(C)=C/C=C/C=C/[C@@H](C)C[C@@H](C)C(=O)[C@@H]1OC value="< 1 nM"

### Prompt Using known records, supply IC50 for "COCCOCCO[C@H]1C[C@@H]2CC[C@@H](C)[C@@](O)(O2)C(=O)C(=O)N2CCCC[C@H]2C(=O)O[C@H]([C@H](C)C[C@@H]2CC[C@@H](OP(C)(C)=O)[C@H](OC)C2)CC(=O)[C@H](C)/C=C(\C)[C@@H](OC)[C@@H](OC)C(=O)[C@H](C)C[C@H](C)/C=C/C=C/C=C/1C"
### Response 1 to 10 nM

### Prompt Kindly indicate its recorded IC50. Item: CO[C@@H]1C[C@H](C[C@@H](C)[C@@H]2CC(=O)[C@H](C)/C=C(\C)[C@@H](O)[C@@H](OC)C(=O)[C@H](C)C[C@H](C)/C=C/C=C/C=C(\C)C(OCCOC3COC3)C[C@@H]3CC[C@@H](C)[C@@](O)(O3)C(=O)C(=O)N3CCCC[C@H]3C(=O)O2)CC[C@H]1OP(C)(C)=O (stereo partly shown)
### Response 1 to 10 nM
